# Target: TYK2 (Homo sapiens)
# Protocol summary: TYK2 degradation MSD assay in EBV-B cells
# Format: cell-based
# Set-up: endogenous in cells; host or cells: EBV-B cells
# Details: 4 to 24 hours incubation, read-out: TYK2 MSD DC50 rating in EBV-B
compounds and their reported DC50
Endpoint name: DC50

[
  {
    "Compound": "[2H]C([2H])([2H])NC(=O)c1nnc(Nc2ccc(CN(C)CC3CCN(c4ccc5c(c4)n(C)c(=O)n5C4CCC(=O)NC4=O)CC3)cn2)cc1Nc1cccc(F)c1OC (centres unmarked)",
    "Observed measurement": "< 1 nM"
  },
  {
    "Compound": "CNc1cc(Nc2cccn(C3CCN(C(=O)COCCOCCc4ccc5c(c4)n(C)c(=O)n5C4CCC(=O)NC4=O)CC3)c2=O)nn2c(C(=O)N[C@@H]3C[C@@H]3F)cnc12 (some centres unmarked)",
    "Observed measurement": "> 100 nM"
  },
  {
    "Compound": "CNc1cc(N2CCc3c(-c4ccc(CN5CCN(c6ccc(-c7cccc8c7n(C)c(=O)n8C7CCC(=O)NC7=O)cc6)CC5)cn4)cccc32)nn2c(C(=O)N[C@@H]3C[C@@H]3F)cnc12 (some centres unmarked)",
    "Observed measurement": "> 100 nM"
  },
  {
    "Compound": "CNc1cc(N2CCc3c(-c4ccc(CN5CCN(c6ccc(-c7ccc8c(c7)n(C)c(=O)n8C7CCC(=O)NC7=O)cc6)CC5)cn4)cccc32)nn2c(-c3cn(C(C)C)nn3)cnc12 (centres unmarked)",
    "Observed measurement": "> 100 nM"
  },
  {
    "Compound": "CNc1cc(Nc2cccn(C3CCN(C(=O)N(C)C4CCN(Cc5cccc6c5n(C)c(=O)n6C5CCC(=O)NC5=O)CC4)CC3)c2=O)nn2c(C(=O)N[C@@H]3C[C@@H]3F)cnc12 (some centres unmarked)",
    "Observed measurement": "1 to 10 nM"
  },
  {
    "Compound": "CNc1cc(-c2cnn(C3CN(C(=O)NCCCCc4ccc5c(c4)n(C)c(=O)n5C4CCC(=O)NC4=O)C3)c2)nn2c(C(=O)N[C@@H]3C[C@@H]3F)cnc12 (some centres unmarked)",
    "Observed measurement": "> 100 nM"
  },
  {
    "Compound": "Cn1c(=O)n(C2CCC(=O)NC2=O)c2ccc(CCCCNC(=O)c3ccc(-c4ccc5ncc(C(=O)N[C@@H]6C[C@@H]6F)n5n4)cc3)cc21 (some centres unmarked)",
    "Observed measurement": "> 100 nM"
  },
  {
    "Compound": "CNC(=O)c1cnc(Nc2ccc(CN(C)C3CCCN(c4cccc5c4n(C)c(=O)n5C4CCC(=O)NC4=O)C3)cn2)cc1Nc1cccc(-c2ncc(F)cn2)c1OC (centres unmarked)",
    "Observed measurement": "1 to 10 nM"
  },
  {
    "Compound": "CNc1cc(Nc2cccc(CN(C)Cc3ccc(-c4ccc5c(c4)n(C)c(=O)n5C4CCC(=O)NC4=O)cn3)c2)nn2c(C(=O)NC3CC3)cnc12 (centres unmarked)",
    "Observed measurement": "> 100 nM"
  },
  {
    "Compound": "Cn1c(=O)n(C2CCC(=O)NC2=O)c2ccc(-c3ccc(N4CCN(Cc5ccc(-c6cccc(Nc7nn8c(C(=O)N[C@@H]9C[C@@H]9F)cnc8c8c7OCCN8)c6)nc5)CC4)cc3)cc21 (some centres unmarked)",
    "Observed measurement": "> 100 nM"
  },
  {
    "Compound": "CNC(=O)c1cnc(NC(=O)NCCCCCCCc2ccc3c(c2)n(C)c(=O)n3C2CCC(=O)NC2=O)cc1Nc1cccc(-c2ncc(F)cn2)c1OC (centres unmarked)",
    "Observed measurement": "> 100 nM"
  }
]

====

compounds and their reported DC50
# Target: TYK2 (Homo sapiens, UniProt P29597)
# Sequence (P29597 whole entry): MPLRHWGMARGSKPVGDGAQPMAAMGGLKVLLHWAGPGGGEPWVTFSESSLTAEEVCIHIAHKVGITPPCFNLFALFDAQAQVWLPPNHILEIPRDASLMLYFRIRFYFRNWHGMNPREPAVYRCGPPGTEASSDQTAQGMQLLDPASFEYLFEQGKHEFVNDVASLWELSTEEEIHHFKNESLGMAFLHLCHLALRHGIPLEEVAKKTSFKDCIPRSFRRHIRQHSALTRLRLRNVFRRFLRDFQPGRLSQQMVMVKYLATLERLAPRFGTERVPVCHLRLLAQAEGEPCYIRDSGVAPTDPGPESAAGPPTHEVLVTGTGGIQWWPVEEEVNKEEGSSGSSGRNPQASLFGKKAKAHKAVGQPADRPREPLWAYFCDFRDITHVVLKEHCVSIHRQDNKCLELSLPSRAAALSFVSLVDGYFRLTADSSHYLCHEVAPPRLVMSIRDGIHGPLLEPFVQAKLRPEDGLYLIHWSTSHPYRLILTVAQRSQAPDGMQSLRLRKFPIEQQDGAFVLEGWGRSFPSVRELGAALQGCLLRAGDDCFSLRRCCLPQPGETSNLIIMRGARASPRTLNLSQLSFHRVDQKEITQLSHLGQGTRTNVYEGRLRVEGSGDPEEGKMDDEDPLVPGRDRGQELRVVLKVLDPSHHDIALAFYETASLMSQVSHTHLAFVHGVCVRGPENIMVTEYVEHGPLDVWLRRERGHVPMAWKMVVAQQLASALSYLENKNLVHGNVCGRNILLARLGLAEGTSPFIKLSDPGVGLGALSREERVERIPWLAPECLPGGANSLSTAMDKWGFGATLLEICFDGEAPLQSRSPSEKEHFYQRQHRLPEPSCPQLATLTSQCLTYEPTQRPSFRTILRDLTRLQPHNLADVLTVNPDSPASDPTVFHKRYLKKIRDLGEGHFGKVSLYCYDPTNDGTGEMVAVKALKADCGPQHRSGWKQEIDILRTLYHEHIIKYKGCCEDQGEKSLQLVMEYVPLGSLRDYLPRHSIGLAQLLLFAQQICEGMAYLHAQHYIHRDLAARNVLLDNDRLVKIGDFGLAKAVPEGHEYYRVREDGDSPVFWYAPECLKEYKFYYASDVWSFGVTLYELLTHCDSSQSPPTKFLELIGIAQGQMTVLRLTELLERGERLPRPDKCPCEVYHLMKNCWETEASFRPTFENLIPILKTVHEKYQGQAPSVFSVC
# Protocol summary: TYK2 degradation MSD assay in human PBMC cells
# Type: cell-based
# Set-up: endogenous in cells; host or cells: human PBMC
# Details: 4 to 24 hours incubation, read-out: TYK2 MSD DC50 rating in human PBMC

[
  {
    "Compound": "CNc1cc(Nc2cccn(-c3cc(C(=O)NCCCCCCc4ccc5c(c4)n(C)c(=O)n5C4CCC(=O)NC4=O)ccn3)c2=O)nn2c(C(=O)N[C@@H]3C[C@@H]3F)cnc12 (stereo partly drawn)",
    "DC50": "< 1 nM"
  },
  {
    "Compound": "CNc1cc(Nc2cccc(-c3ccc(CN4CCN(c5ccc(-c6ccc7c(c6)n(C)c(=O)n7C6CCC(=O)NC6=O)cc5)CC4)cn3)c2)nc2c(C(=O)N[C@@H]3C[C@@H]3F)cnn12 (stereo partly drawn)",
    "DC50": "> 100 nM"
  },
  {
    "Compound": "CNc1cc(Nc2cccn(-c3ccc(CN4CC5(C4)CN(c4ccc(-c6ccc7c(c6)n(C)c(=O)n7C6CCC(=O)NC6=O)cc4)C5)cn3)c2=O)nn2c(C(=O)N[C@@H]3C[C@@H]3F)cnc12 (stereo partly drawn)",
    "DC50": "> 100 nM"
  }
]

====

molecules and their reported DC50
# Target: TYK2 (Homo sapiens, UniProt P29597)
# Protocol summary: TYK2 degradation MSD assay in EBV-B cells
# Type: cell-based
# Parameters: endogenous in cells; host or cells: EBV-B cells
# Details: 4 to 24 hours incubation, read-out: TYK2 MSD DC50 rating in EBV-B
Endpoint name: DC50

[
  {
    "Molecule": "CNc1cc(Nc2cccc(-c3ccc(CN4CCN(c5ccc(-c6ccc7c(c6)n(C)c(=O)n7C6CCC(=O)NC6=O)cn5)C(=O)C4)cn3)c2)nn2c(C(=O)N[C@@H]3C[C@@H]3F)cnc12 (some centres unmarked)",
    "Endpoint name": "DC50",
    "Observed measurement": "< 1 nM"
  },
  {
    "Molecule": "CNc1cc(Nc2cccn(-c3ccc(C(=O)N(C)C4CCC(N5CCN(c6ccc7c(c6)n(C)c(=O)n7C6CCC(=O)NC6=O)CC5)CC4)cn3)c2=O)nn2c(C(=O)N[C@@H]3C[C@@H]3F)cnc12 (some centres unmarked)",
    "Endpoint name": "DC50",
    "Observed measurement": "> 100 nM"
  },
  {
    "Molecule": "CNc1cc(Nc2cccc(C#CCN3CCN(c4ccc(-c5ccc6c(c5)n(C)c(=O)n6C5CCC(=O)NC5=O)cc4)CC3)c2OC)nn2c(C(=O)N[C@@H]3C[C@@H]3F)cnc12 (mixture of isomers)",
    "Endpoint name": "DC50",
    "Observed measurement": "> 100 nM"
  },
  {
    "Molecule": "CNc1cc(Nc2cccc(-c3ccc(CN4CCN(c5ccc(-c6ccc7c(c6)n(C)c(=O)n7C6CCC(=O)NC6=O)cc5)CC4)cn3)c2OC)nn2c(C(=O)NC3CC3C)cnc12 (centres unmarked)",
    "Endpoint name": "DC50",
    "Observed measurement": "> 100 nM"
  },
  {
    "Molecule": "CNC(=O)c1cnc(Nc2ccc(CN3CC4(CCN(c5ccc6c(c5)n(C)c(=O)n6C5CCC(=O)NC5=O)CC4)C3)cn2)cc1Nc1cccc(-c2ncc(F)cn2)c1OC (centres unmarked)",
    "Endpoint name": "DC50",
    "Observed measurement": "< 1 nM"
  }
]

====

compounds and their reported DC50
# Target: TYK2 (Homo sapiens, UniProt P29597)
# Protocol summary: TYK2 degradation MSD assay in OCI-LY10 cells
# Format: cell-based
# Parameters: endogenous in cells; host or cells: EBV-B cells
# Details: 4 to 24 hours incubation, read-out: TYK2 MSD DC50 rating in OCI-LY10
# Method: Example 3. TYK2 Degradation MSD Assay in EBV-B, OCI-LY10, and Human PBMC Cells Degradation of TYK2 in cells was quantitatively measured using Meso Scale Discovery (MSD) technology. […] The assay plates were then incubated at room temperature for 1 hour, washed 3 times with 150 μl/well TBST buffer, and 150 μl/well MSD reading buffer (MSD, R92TC-2) were added. The plates were then analyzed by an MSD reader. […]
Endpoint name: DC50

[
  {
    "Compound": "CNc1cc(Nc2cccn(-c3ccc(C(=O)N4CC(CN5CCC(c6cccc7c6n(C)c(=O)n7C6CCC(=O)NC6=O)CC5)C4)cn3)c2=O)nn2c(C(=O)N[C@@H]3C[C@@H]3F)cnc12 (some centres unmarked) [Example K450]",
    "Observed measurement": "< 1 nM"
  },
  {
    "Compound": "CNc1cc(-c2cccc(C(=O)NCCCCCCCCc3ccc4c(c3)n(C)c(=O)n4C3CCC(=O)NC3=O)c2)nn2c(C(=O)NC3C[C@@H]3F)cnc12 (some centres unmarked) [Example K309]",
    "Observed measurement": "> 100 nM"
  },
  {
    "Compound": "Cn1c(=O)n(C2CCC(=O)NC2=O)c2ccc(C3CN(C4CCN(Cc5ccc(-c6cccc(Nc7ccc8ncc(C(=O)NC9CC9)n8n7)c6)nc5)CC4)C3)cc21 (centres unmarked) [Example K405]",
    "Observed measurement": "> 100 nM"
  },
  {
    "Compound": "CNc1cc(Nc2cccc(CN(C)C3CCN(c4cccc5c4n(C)c(=O)n5C4CCC(=O)NC4=O)CC3)c2)nn2c(C(=O)NC3CC3)cnc12 (centres unmarked) [Example K597]",
    "Observed measurement": "> 100 nM"
  },
  {
    "Compound": "Cn1c(=O)n(C2CCC(=O)NC2=O)c2cccc(CCOCCOCCOCCOCCNc3cc(Nc4cccn(-c5ccccn5)c4=O)nn4c(C(=O)N[C@@H]5C[C@@H]5F)cnc34)c21 (some centres unmarked) [Example K214]",
    "Observed measurement": "> 100 nM"
  },
  {
    "Compound": "CNc1cc(-c2cccc(C(=O)NCCCCc3ccc4c(c3)n(C)c(=O)n4C3CCC(=O)NC3=O)c2)nn2c(C(=O)N[C@@H]3C[C@@H]3F)cnc12 (some centres unmarked) [Example K307]",
    "Observed measurement": "> 100 nM"
  },
  {
    "Compound": "CNc1cc(Nc2ccccc2C(=O)NCCCCCCCCc2ccc3c(c2)n(C)c(=O)n3C2CCC(=O)NC2=O)nn2c(C(=O)N[C@@H]3C[C@@H]3F)cnc12 (some centres unmarked) [Example K256]",
    "Observed measurement": "> 100 nM"
  },
  {
    "Compound": "CNc1cc(Nc2cccc(C#CCN3CCN(c4ccc(-c5ccc6c(c5)n(C)c(=O)n6C5CCC(=O)NC5=O)cc4)CC3)c2OC)nn2c(C(=O)N[C@@H]3C[C@@H]3F)cnc12 (mixture of isomers) [Example K543]",
    "Observed measurement": "< 1 nM"
  },
  {
    "Compound": "CNc1cc(-c2ccc(-c3ccc(CN4CCN(c5ccc(-c6ccc7c(c6)n(C)c(=O)n7C6CCC(=O)NC6=O)cc5)CC4)cn3)cc2)nn2c(C(=O)N[C@@H]3C[C@@H]3F)cnc12 (some centres unmarked) [Example K529]",
    "Observed measurement": "1 to 10 nM"
  },
  {
    "Compound": "CNc1cc(Nc2cccc(-c3ccc(CN4CCN([C@H]5CC[C@H](c6ccc7c(c6)n(C)c(=O)n7C6CCC(=O)NC6=O)CC5)CC4)cn3)c2OC)nn2c(C(=O)N[C@@H]3C[C@@H]3F)cnc12 (mixture of isomers) [Example K553]",
    "Observed measurement": "< 1 nM"
  },
  {
    "Compound": "Cn1c(=O)n(C2CCC(=O)NC2=O)c2cccc(C#CC3CCN(Cc4ccc(-c5cccc(Nc6ccc7ncc(C(=O)NC8CC8)n7n6)c5)nc4)CC3)c21 (centres unmarked) [Example K412]",
    "Observed measurement": "> 100 nM"
  }
]
